Experiment: Distribution coefficient, log D of the compound
Format: physicochemical
Settings: octanol/water
recorded_metric: logD

Take a look at these entries with their results.
| molecule | logD |
| --- | --- |
| CC1(C)[C@H]2CC=C(CN3CCC(NC(=O)Nc4cncc(-c5cccs5)c4)CC3)[C@@H]1C2 | 3.47 |
| O=C(Nc1ccc2ccccc2c1)NC1CCN(C/C2=C/CCCCCC2)CC1 | 4.95 |
| CC1(C)[C@H]2CC=C(CN3CCC(NC(=O)Nc4cc(F)cc(OC5CCOC5)c4)CC3)[C@@H]1C2 (stereo not given in full) | 3 |

Record logD per entry; entries follow.
1. CC1(C)[C@H]2CC=C(C[N+]3(C)CCC(NC(=O)Nc4cc(F)cc(C(F)(F)F)c4)CC3)[C@@H]1C2.[I-] (stereo not given in full)
2. CC1(C)[C@H]2CC=C(CN3CCC(NC(=O)Nc4cccc(OC5CCOC5)c4)CC3)[C@@H]1C2 (stereo not given in full)

2.35
3.87

====

Target: C-X-C chemokine receptor type 3 (Mus musculus)
Sequence (O88410 whole entry): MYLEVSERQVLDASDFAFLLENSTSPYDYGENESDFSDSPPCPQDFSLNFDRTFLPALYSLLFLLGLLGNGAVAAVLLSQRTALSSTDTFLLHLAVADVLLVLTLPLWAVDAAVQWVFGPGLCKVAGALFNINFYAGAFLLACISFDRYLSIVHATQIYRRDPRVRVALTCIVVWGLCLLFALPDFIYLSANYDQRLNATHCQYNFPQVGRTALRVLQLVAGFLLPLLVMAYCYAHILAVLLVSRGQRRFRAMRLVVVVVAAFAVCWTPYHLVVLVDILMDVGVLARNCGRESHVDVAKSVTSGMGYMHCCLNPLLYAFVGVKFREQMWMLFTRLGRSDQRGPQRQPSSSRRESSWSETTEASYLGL
Experiment: Antagonist activity at mouse CXCR3 by [35S]GTP-gamma-S binding assay
Assay type: functional
recorded_metric: pKi
Give bare numbers, as −log10 of the molar value.

Entry under review: O=C(Nc1ccc2ccccc2c1)NC1CCN(C/C2=C/CCCCCC2)CC1 . Reported pKi? 6.40

====

Assay: Aqueous solubility at pH 6.5
Assay type: physicochemical
Assign solubility to each entry below.
Give bare numbers, in µg/mL.

Take a look at these entries with their results.
| compound | unit_info | solubility |
| --- | --- | --- |
| CC1(C)[C@H]2CC=C(C[N+]3(C)CCC(NC(=O)Nc4cc(F)cc(C(F)(F)F)c4)CC3)[C@@H]1C2.[I-] (stereo not given in full) | µg/mL | 55 |
| CC1(C)[C@H]2CC=C(CN3CCC(NC(=O)Nc4cc(F)cc(OC5CCOC5)c4)CC3)[C@@H]1C2 (stereo not given in full) | µg/mL | 874 |
| CC1(C)[C@H]2CC=C(CN3CCC(NC(=O)Nc4cncc(-c5cccs5)c4)CC3)[C@@H]1C2 | µg/mL | 4 |
| CC1(C)[C@H]2CC=C(CN3CCC(NC(=O)Nc4cccc(OC5CCOC5)c4)CC3)[C@@H]1C2 (stereo not given in full) | µg/mL | 927 |

// next entry
Entry under review: O=C(Nc1ccc2ccccc2c1)NC1CCN(C/C2=C/CCCCCC2)CC1 . Reported solubility? 1

====

Target: C-X-C chemokine receptor type 3 (Homo sapiens, UniProt P49682)
Sequence (P49682 whole entry): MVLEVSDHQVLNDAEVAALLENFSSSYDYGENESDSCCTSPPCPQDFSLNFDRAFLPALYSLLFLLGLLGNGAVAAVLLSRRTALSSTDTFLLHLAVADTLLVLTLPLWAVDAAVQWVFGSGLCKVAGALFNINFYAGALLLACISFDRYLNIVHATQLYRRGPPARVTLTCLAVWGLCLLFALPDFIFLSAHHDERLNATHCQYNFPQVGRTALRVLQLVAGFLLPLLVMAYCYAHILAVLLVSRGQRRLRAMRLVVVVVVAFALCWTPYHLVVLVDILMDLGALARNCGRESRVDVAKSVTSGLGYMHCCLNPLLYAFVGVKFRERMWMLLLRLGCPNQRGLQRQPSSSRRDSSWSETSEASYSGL
Assay: Antagonist activity at human CXCR3 expressed in CHO cells by [35S]GTP-gamma-S binding assay
Type: functional, cell-based
pKi: −log10 of the molar value.
Please use satisfied whenever pKi is not below 7, and not satisfied whenever it is.

Use the examples below as a reference point.
| molecule | experimental_target | assigned_category |
| --- | --- | --- |
| CC(=O)c1cccc(NC(=O)NC2CCN(C/C3=C/CCCCCC3)CC2)c1 | C-X-C chemokine receptor type 3 (Homo sapiens, UniProt P49682) | not satisfied |
| CC1(C)[C@H]2CC=C(C[N+]3(C)CCC(NC(=O)Nc4cc(F)cc(C(F)(F)F)c4)CC3)[C@@H]1C2.[I-] (stereo partly specified) | C-X-C chemokine receptor type 3 (Homo sapiens, UniProt P49682) | satisfied |

API: above_or_equal(metric=pKi, cutoff=7) for item CC1(C)[C@H]2CC=C(CN3CCC(NC(=O)Nc4ccc(-c5ccccc5)s4)CC3)[C@@H]1C2 not satisfied

API: above_or_equal(metric=pKi, cutoff=7) for item O=C(Nc1cc(Cl)cc(Cl)c1)NC1CCN(C/C2=C/CCCCCC2)CC1 satisfied

API: above_or_equal(metric=pKi, cutoff=7) for item CC1(C)[C@H]2CC=C(CN3CCC(NC(=O)Nc4cccc(OC5CCOCC5)c4)CC3)[C@@H]1C2 not satisfied

API: above_or_equal(metric=pKi, cutoff=7) for item O=C(Nc1cc(C(F)(F)F)cc(C(F)(F)F)c1)NC1CCN(C/C2=C/CCCCCC2)CC1 satisfied

API: above_or_equal(metric=pKi, cutoff=7) for item COC(=O)c1cccc(NC(=O)NC2CCN(CC3=CC[C@H]4C[C@@H]3C4(C)C)CC2)c1 not satisfied

API: above_or_equal(metric=pKi, cutoff=7) for item CC1(C)[C@H]2CC=C(CN3CCC(NC(=O)Nc4cccc(OC(F)(F)F)c4)CC3)[C@@H]1C2 satisfied

API: above_or_equal(metric=pKi, cutoff=7) for item CC1(C)C2CC=C(CCN3CCC(NC(=O)Nc4ccc5ccccc5c4)CC3)C1C2 (stereo unspecified) not satisfied

Origin of values: ChEMBL document CHEMBL1143784
